assay: Components of the Cytosolic LPS Sensing Pathway: Gene Identification via Genome-wide siRNA Screen; conditions: RAW264.7 macrophages, IL-1a HTRF, actives lie on both sides, screened at 100 nM (by protocol), cells primed 5 h with Pam3CSK4 first
In all, about 53,000 sequences went through this assay and about 3,700 (7%) were called active.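 Rule for the calls: active = gene knockdowns whose robust z-score for IL-1 alpha signal is at least 2 or at most -2, so actives lie on both sides; inactive = the rest.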 The sample as a whole holds a higher share of actives than the screen did.
Write down one outcome, taken from 1 (yes) (active), 0 (no) (inactive)

INSERT INTO results (sequenceinput, classification) VALUES
  ('GUACCUGAACUCAACUGAGTT against Ffar2', '0 (no)'),
  ('GGCUGAAAGUGAAGAAACGTT against Srp68', '1 (yes)'),
  ('GGUCUCUCGGACUUUUUCCTT against Adipor1', '0 (no)');

Now look at this entry.
Ask: What outcome does the record of this test show for CGAUGUGACUAUUUGUUGATT against Snx11 ?
Reply: 0 (no)

###

experiment: Components of the Cytosolic LPS Sensing Pathway: Gene Identification via Genome-wide siRNA Screen; conditions: RAW264.7 macrophages, IL-1a HTRF, actives lie on both sides, screened at 100 nM (by protocol), cells primed 5 h with Pam3CSK4 first
The whole screen tested about 53,000 sequences, of which about 3,700 (7%) were called active.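 How the source made its calls: active means gene knockdowns whose robust z-score for IL-1 alpha signal is at least 2 or at most -2, so actives lie on both sides; inactive means the rest.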 Only a selection was taken, and actives are over-represented in it overall.
Write down one outcome, taken from 1 (yes) (active), 0 (no) (inactive)

Example entries begin here.
INSERT INTO measurements (sequenceinput, classification) VALUES
  ('GCAUAUAAGAGAAGUGCCUTT against Parl', '0 (no)'),
  ('GGAUGUCCGGAAGAUGUUUTT against Celf3', '0 (no)'),
  ('GGCAUGACUGGACUGAAAATT against Ythdf3', '0 (no)'),
  ('GGGCACAGACAUGUUUGAGTT against Padi3', '0 (no)');

Ask: What outcome does the record of this test show for GGAAAUGUCAUGACCUUGATT against Tnfaip6 ?
Reply: 0 (no)

Ask: What outcome does the record of this test show for GGUGGUGAUUCACCUCCAATT against Tnfrsf12a ?
Reply: 1 (yes)

Ask: What outcome does the record of this test show for CCUGAAUUCAGUCUGUUUUTT against Depdc1b ?
Reply: 0 (no)

Ask: What outcome does the record of this test show for GCGGGAGAAGCUAAUGAAATT against Ndufs5 ?
Reply: 1 (yes)

Ask: What outcome does the record of this test show for GGCUAUUUAUAAGUCCAGUTT against Uso1 ?
Reply: 0 (no)

Ask: What outcome does the record of this test show for GGCAAAGAUUCCAAAAGAGTT against Bsdc1 ?
Reply: 0 (no)

Ask: What outcome does the record of this test show for GCCCGCACAAUCGUACUUUTT against Ccl28 ?
Reply: 0 (no)

Ask: What outcome does the record of this test show for GGAGAAGGAUGAAGACGGATT against Map1lc3a ?
Reply: 0 (no)

###

assay: Components of the Cytosolic LPS Sensing Pathway: Gene Identification via Genome-wide siRNA Screen; settings: RAW264.7 macrophages, IL-1a HTRF, actives lie on both sides, screened at 100 nM (by protocol), cells primed 5 h with Pam3CSK4 first;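 note: robust z of the log signal after scaling to non-targeting control siRNA wells of the plate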
Hit rate of the full screen: of about 53,000 sequences, about 3,700 (7%) were called active. Many of the other results were omitted from the sample, so actives are more common in it than they were.
assayEndpoint: z-score
One number for each entry.

Would you please look over these solved cases?
INSERT INTO assay_data (sequenceinput, measurement) VALUES
  ('GGAGAUGGCACAGUCAGUCTT against Slc22a8', -0.338),
  ('GGGAAGGAAUAUGAUGGGCTT against Sik3', -0.704),
  ('GGAGCUGGUGGAUCUGAAGTT against Ubfd1', 1.26),
  ('GCUAGUUUAAGAGACUUUGTT against Nfatc2ip', 0.234),
  ('GGACACUAUCCGUGCAUCUTT against Tsg101', -1.13);

Now for another entry.
Documented z-score of GGCCUAGCAAUUCUUGAGCTT against Gm5087 : -0.18

###

test: Components of the Cytosolic LPS Sensing Pathway: Gene Identification via Genome-wide siRNA Screen; details: RAW264.7 macrophages, IL-1a HTRF, actives lie on both sides, screened at 100 nM (by protocol), cells primed 5 h with Pam3CSK4 first;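 note: robust z of the log signal after scaling to non-targeting control siRNA wells of the plate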
The campaign covered roughly 53,000 sequences. About 3,700 (7%) were called active.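 How the source made its calls: active means gene knockdowns whose robust z-score for IL-1 alpha signal is at least 2 or at most -2, so actives lie on both sides; inactive means the rest.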 Shown is part of a subset that was picked to be rich in actives.
Write down one outcome, taken from label 1 = active, label 0 = inactive

INSERT INTO assay_data (sequenceinput, classification) VALUES
  ('CCAGUUUGCACAAGUUUUCTT against Fyco1', 'label 0');

Ask: What outcome does the record of this test show for GGCUGCAUUACCCAGCUUATT against Olfr853 ?
Reply: label 0

Ask: What outcome does the record of this test show for GGCAAAUCUGAACAACAUUTT against Agt ?
Reply: label 0

Ask: What outcome does the record of this test show for CCAAUUCACUUAGGAGCUGTT against Psma4 ?
Reply: label 1

Ask: What outcome does the record of this test show for GCUAAACACGCUGAAUAUUTT against Phf10 ?
Reply: label 0

Ask: What outcome does the record of this test show for CGGUUCUGGGAAUUCUUUGTT against Olfr624 ?
Reply: label 1

###

assay: Components of the Cytosolic LPS Sensing Pathway: Gene Identification via Genome-wide siRNA Screen; conditions: RAW264.7 macrophages, IL-1a HTRF, actives lie on both sides, screened at 100 nM (by protocol), cells primed 5 h with Pam3CSK4 first;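 note: robust z of the log signal after scaling to non-targeting control siRNA wells of the plate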
In all, about 53,000 sequences went through this assay and about 3,700 (7%) were called active.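 How the source made its calls: active means gene knockdowns whose robust z-score for IL-1 alpha signal is at least 2 or at most -2, so actives lie on both sides; inactive means the rest.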 This excerpt belongs to a sample that is enriched for actives.
Write down one outcome, taken from True for active, False for inactive

Example entries begin here.
INSERT INTO assay_data (sequenceinput, classification) VALUES
  ('CGAGAGUGGGUGGGUUGAATT against Zfp950', 'False'),
  ('GCCCAGGUCUAAUGUCUAATT against Tac4', 'False'),
  ('GCGAGUGCUUGGCUAUUAUTT against Ckap2', 'False'),
  ('GCCUCGUGAAUAAUUGAAATT against Ddt', 'False'),
  ('GCCUUAAUACUCACCAGGGTT against Zscan2', 'False'),
  ('GGCUCCAAGCACUAAAUAATT against B130024G19Rik', 'False'),
  ('GGUUCUACCUCAAGAUGUUTT against Srd5a2', 'False'),
  ('GGGCAUUUUAACCAAAUGATT against Marchf11', 'False');

Ask: What outcome does the record of this test show for GGCUGCUUAACCUUGAUAATT against Lrrd1 ?
Reply: False

Ask: What outcome does the record of this test show for GGAGAUAUUAUUGUUCAGATT against Cemip2 ?
Reply: False

Ask: What outcome does the record of this test show for GGGUCAUGUUUUUAAGAAGTT against Frrs1 ?
Reply: False

Ask: What outcome does the record of this test show for CUACGAGCCACUUCUGAGATT against Krt87 ?
Reply: False

Ask: What outcome does the record of this test show for GCCGAUCCAUUUUUGGCUCTT against Mlxip ?
Reply: False

Ask: What outcome does the record of this test show for GCACUUCAGUUUACAAAACTT against Mier3 ?
Reply: False

Ask: What outcome does the record of this test show for GGACCAAGCCACCAAAACUTT against Vmn1r78 ?
Reply: True

Ask: What outcome does the record of this test show for CGUUCUCUUGAAAUAAGCCTT against Pogk ?
Reply: False

Ask: What outcome does the record of this test show for CGUCUUACACGGUUCAAAGTT against Tbc1d10a ?
Reply: False

Ask: What outcome does the record of this test show for GGAAGAAGAUAAAGAGCGGTT against Nrgn ?
Reply: False

Ask: What outcome does the record of this test show for GGUUGGGCUGCCAAGUUUGTT against Fdx1 ?
Reply: False

Ask: What outcome does the record of this test show for CCUUUCAAGGAGAUAUAAUTT against Gcm2 ?
Reply: False

Ask: What outcome does the record of this test show for GGACUAUGAGCAGAUGAAGTT against Calcb ?
Reply: False

###

assay: Components of the Cytosolic LPS Sensing Pathway: Gene Identification via Genome-wide siRNA Screen; conditions: RAW264.7 macrophages, IL-1a HTRF, actives lie on both sides, screened at 100 nM (by protocol), cells primed 5 h with Pam3CSK4 first;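 note: robust z of the log signal after scaling to non-targeting control siRNA wells of the plate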
Screen size: about 53,000 sequences; about 3,700 (7%) were called active. The entries come from a sample that favours actives as a whole.
Criterion: z-score meeting or surpassing -0.1. Met: met. Not met: not met.

Example entries begin here.
INSERT INTO assay_data (sequenceinput, classification) VALUES
  ('GGGACACCUUCCGUAACUATT against Gcdh', 'not met'),
  ('GCGUGUCCUAUAGCAUCUGTT against Cela1', 'not met'),
  ('GUGGAUACGUGGGAAAGUCTT against Nmnat1', 'met'),
  ('GGCCUUCAUUGAGAUGAACTT against Ptbp1', 'not met');

Ask: Does the reported z-score for GGUUCUUAACCUCAGCAGUTT against Omg fall at or above the -0.1 mark?
Reply: not met

Ask: Does the reported z-score for GGAGAAGAAUUCUUACAGGTT against Fbxo16 fall at or above the -0.1 mark?
Reply: met

Ask: Does the reported z-score for GGAGAGAUGUUUAUGAAUATT against Slc6a14 fall at or above the -0.1 mark?
Reply: not met

Ask: Does the reported z-score for GGGACAGAGCCGAAAGAGUTT against Mrpl33 fall at or above the -0.1 mark?
Reply: not met

Ask: Does the reported z-score for GGCUUAAGGUGAGAUAUUCTT against Sp9 fall at or above the -0.1 mark?
Reply: not met
